Test system: Candida parapsilosis
PROCEDURE DETAILS: Antifungal activity against Candida parapsilosis ATCC 22019 […] after 72 hrs by ATB Fungus 2 method
Assay type: functional
REPORTED CONDITIONS: Lodderomyces parapsilosis, ATCC 22019, 72 h
MEASURED ATTRIBUTE: MIC

{"COMPOUND": "CCC(C)n1ncn(-c2ccc(N3CCN(c4ccc(OCC5COC(Cn6cncn6)(c6ccc(Cl)cc6Cl)O5)cc4)CC3)cc2)c1=O (centres undefined) [ITRACONAZOLE]", "MIC": "≤ 0.125 µg/mL"}
{"COMPOUND": "OC(Cn1cncn1)(Cn1cncn1)c1ccc(F)cc1F [FLUCONAZOLE]", "MIC": "4 µg/mL"}
{"COMPOUND": "Nc1nc(=O)[nH]cc1F [FLUCYTOSINE]", "MIC": "1 µg/mL"}

Attention now turns to another entry.
input: # MIC lookup, item C[C@@H]1[C@H](O)[C@@H](C)/C=C/C=C/C=C/C=C/C=C/C=C/C=C/[C@H](O[C@@H]2O[C@H](C)[C@@H](O)[C@H](N)[C@@H]2O)C[C@@H]2O[C@](O)(C[C@@H](O)C[C@@H](O)[C@H](O)CC[C@@H](O)C[C@@H](O)CC(=O)O[C@H]1C)C[C@H](O)[C@H]2C(=O)O [AMPHOTERICIN B]
output: ≤ 0.5 µg/mL

Entry source: ChEMBL document CHEMBL1150788
